Experiment: Toxicity in mouse
Assay type: organism-based
Conditions: in vivo
A collection of compounds and their measured LD50
Your answer should be a number followed by the unit of measure.

Answered cases to consult:
compound	LD50
C[C@@H](c1cccc([C@H](C)C2CC2)c1OCOP(=O)([O-])[O-])C1CC1.[Na+].[Na+]	42.5 mg/kg
CC(C)c1cccc(C(C)C)c1OCOP(=O)([O-])[O-].[Na+].[Na+] [FOSPROPOFOL DISODIUM]	220 mg/kg
CC[C@@H](C)c1cccc([C@H](C)C2CC2)c1OCOP(=O)([O-])[O-].[Na+].[Na+]	63.7 mg/kg
CC(C)c1cccc([C@H](C)C2CC2)c1OCOP(=O)([O-])[O-].[Na+].[Na+]	86.5 mg/kg

Prompt: Please give measured LD50 of the following entry: CC[C@H](C)c1cccc([C@H](C)C2CC2)c1OCOP(=O)([O-])[O-].[Na+].[Na+]
Completion: 91.8 mg/kg

====

Assay: Toxicity in iv dosed ICR mouse administered 7 to 8 doses at 10 secs for each dose
Format: organism-based
Settings: in vivo
measure.name: LD50 at 10 s (mg/kg)
# number only, unit mg/kg dropped from output

Worked cases, LD50 at 10 s given:
compound	reading
CC[C@@H](C)c1cccc([C@H](C)CC)c1O	23.8
CC(C)c1cccc([C@@H](C)C2CC2)c1O	50
CC(c1cccc(C(C2CC2)C2CC2)c1O)C1CC1 (racemic)	98.2
CC(C)c1cccc(C(C)C2CCCC2)c1O (racemic)	115
CC(C)c1cccc([C@@H](C)C2CCC2)c1O	107
C[C@H](c1cccc([C@H](C)C2CC2)c1O)C1CC1	43.6

Prompt: Answer with the recorded LD50 at 10 s of CC(c1ccccc1O)C1CC1 (racemic) only.
Completion: 64.8

Prompt: Determine from records and report LD50 at 10 s for Cc1cccc(C(C)C2CC2)c1O (racemic)
Completion: 54.9

Prompt: Provide only the value of recorded LD50 at 10 s for CC[C@H](C)c1cccc([C@H](C)C2CC2)c1O
Completion: 65.4

Prompt: Kindly indicate its recorded LD50 at 10 s. Item: CCC(c1cccc(C(C)C)c1O)C1CC1 (racemic)
Completion: 53.2

Prompt: Complete the entry with LD50 at 10 s for CC(C)c1cccc(C(C)C2CCC2)c1O (racemic)
Completion: 40

Prompt: Annotate the compound CC(c1cccc(C2CC2)c1O)C1CC1 (racemic) with its measured LD50 at 10 s.
Completion: 80

Prompt: For the compound CC[C@@H](C)c1cccc([C@@H](C)C2CC2)c1O , give its reported LD50 at 10 s.
Completion: 8.3

Prompt: Quickly give me recorded LD50 at 10 s for C[C@H](c1cccc([C@@H](C)C2CC2)c1O)C1CC1
Completion: 149

Prompt: Respond only with LD50 at 10 s recorded for CC(c1cccc(C2(C)CC2)c1O)C1CC1 (racemic)
Completion: 40

Prompt: Quickly give me recorded LD50 at 10 s for CC[C@@H](C)c1cccc([C@H](C)C2CC2)c1O
Completion: 14.3

Prompt: Provide measured LD50 at 10 s value, entry: CCc1cccc(C(C)C2CC2)c1O (racemic)
Completion: 57.1

Prompt: Give the measured LD50 at 10 s for CCC(c1cccc(C(C)C2CC2)c1O)C1CC1 (racemic)
Completion: 74.7

Values were extracted from ChEMBL document CHEMBL4043087.
